Molecular target: Serine/threonine-protein kinase pim-1 (Homo sapiens)
Sequence (P11309 whole entry): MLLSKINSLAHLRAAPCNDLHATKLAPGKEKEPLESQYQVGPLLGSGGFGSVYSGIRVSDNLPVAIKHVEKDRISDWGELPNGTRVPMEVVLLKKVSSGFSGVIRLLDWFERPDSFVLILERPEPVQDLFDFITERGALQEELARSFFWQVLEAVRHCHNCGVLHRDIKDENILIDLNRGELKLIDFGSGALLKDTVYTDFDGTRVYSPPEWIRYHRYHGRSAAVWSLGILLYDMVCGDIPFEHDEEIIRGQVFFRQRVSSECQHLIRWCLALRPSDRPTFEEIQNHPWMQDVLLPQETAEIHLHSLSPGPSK
Type: functional
The source made the active and inactive calls.
Log the outcome using a class from active, inactive

Worked examples follow.
> print(dat)
                           molecular.string     label
1  CS(=O)(=O)Nc1ccc(Nc2ccc3[nH]nc(N)c3c2)cc1  inactive
2  CS(=O)(=O)N(Cc1ccc2[nH]c(=O)c3cccn3c2c1)C1CC1  inactive
3  c1ccc(Cn2nnc(-c3ccc4[nH]ncc4c3)c2-c2ccccc2)cc1    active
4   c1cnc2[nH]cc(-c3ccnc(NCC4CCCCC4)n3)c2c1  inactive

How was `O=C(Nc1n[nH]c2ccc(-c3cn(Cc4ccccc4)nn3)cc12)c1cc(F)ccc1F` classified in this test?
active

----------
Please consider the recorded AC50 for UniProtKB P10635 in what follows.
Sequence (P10635 whole entry): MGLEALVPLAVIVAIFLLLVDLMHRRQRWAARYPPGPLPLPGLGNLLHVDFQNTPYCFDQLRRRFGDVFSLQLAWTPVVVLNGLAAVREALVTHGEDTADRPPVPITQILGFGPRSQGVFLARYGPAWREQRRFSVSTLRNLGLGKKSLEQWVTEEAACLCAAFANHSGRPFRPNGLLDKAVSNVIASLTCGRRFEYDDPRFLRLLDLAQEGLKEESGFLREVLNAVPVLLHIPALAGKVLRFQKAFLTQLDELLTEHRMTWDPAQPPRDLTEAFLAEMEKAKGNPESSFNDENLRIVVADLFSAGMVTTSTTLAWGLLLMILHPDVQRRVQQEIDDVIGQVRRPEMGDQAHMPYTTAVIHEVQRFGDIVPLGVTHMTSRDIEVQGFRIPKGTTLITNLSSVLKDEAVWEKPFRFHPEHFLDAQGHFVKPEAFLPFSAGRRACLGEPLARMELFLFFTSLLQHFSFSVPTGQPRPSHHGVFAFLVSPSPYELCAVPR

Answered examples (3):
> print(dat)
                                   compound   measured.target      reported.measurement
1  O=C(Cn1nc(C(F)F)cc1C(F)F)N/N=C/c1ccc2c(c1)OCO2  UniProtKB P10635    2.82 µM (inconclusive)
2  CCOc1ccc(CCNC(=O)C2CC(=O)N(C3CCCC3)C2)cc1OCC (stereo not given)  UniProtKB P10635  0.0282 µM (inconclusive)
3       CN(C)Cc1ccccc1-c1cc(NCc2ccccc2)ncn1  UniProtKB P10635    15.8 µM (inconclusive)

For every listed record, write down its AC50.
1. C/C(=N\NC(=O)c1cccc(Cl)c1)c1cccc(NC(=O)C(C)C)c1
2. COc1cccc(-c2cncnc2NCc2ccccc2)c1
3. Cc1cccc(CNc2cc(-c3cccc(C#N)c3)ncn2)c1
4. FC(F)(F)c1ccccc1-c1cc(NCc2cccs2)ncn1
5. N=C(N)S[C@H]1c2ccccc2-c2cc([N+](=O)[O-])ccc21
6. Cc1nn(CC(=O)NCc2ccccc2Cl)c(C)c1[N+](=O)[O-]

1. 28.2 µM (inconclusive)
2. 39.8 µM (inconclusive)
3. 25.1 µM (inconclusive)
4. 25.1 µM (inconclusive)
5. 2.51 µM (inconclusive)
6. 25.1 µM (inconclusive)

I would be grateful if you could provide AC50 for each of the following entries.
1. COc1ccc2[nH]cc(CCNc3ncnc4ccc(-c5cccc(C#N)c5)cc34)c2c1
2. Cc1ccc(Cn2nnc3c(O)nc(C4CCN(C(=O)Cc5cccs5)CC4)nc32)cc1
3. CC[C@]1(c2ncc[nH]2)Cc2ccccc2O1
4. O=C(Nc1ccccc1)N1CCC2(CCNCC2)CC1

1: 3.16 µM (inconclusive); 2: 17.8 µM (inconclusive); 3: 10 µM (inconclusive); 4: 25.1 µM (inconclusive)

Batch: AC50 for all items listed.
1. COc1ccccc1CNc1nc(-c2c(C)noc2C)nc2ccccc12
2. O=S(=O)(Nc1nc(-c2sccc2Cl)cs1)c1cc(Cl)ccc1Cl

7.94 µM (inconclusive)
28.2 µM (inconclusive)

----------
Molecular target: Polyadenylate-binding protein 1 (Homo sapiens, UniProt P11940)
Sequence (P11940 whole entry, the tested form may be a part): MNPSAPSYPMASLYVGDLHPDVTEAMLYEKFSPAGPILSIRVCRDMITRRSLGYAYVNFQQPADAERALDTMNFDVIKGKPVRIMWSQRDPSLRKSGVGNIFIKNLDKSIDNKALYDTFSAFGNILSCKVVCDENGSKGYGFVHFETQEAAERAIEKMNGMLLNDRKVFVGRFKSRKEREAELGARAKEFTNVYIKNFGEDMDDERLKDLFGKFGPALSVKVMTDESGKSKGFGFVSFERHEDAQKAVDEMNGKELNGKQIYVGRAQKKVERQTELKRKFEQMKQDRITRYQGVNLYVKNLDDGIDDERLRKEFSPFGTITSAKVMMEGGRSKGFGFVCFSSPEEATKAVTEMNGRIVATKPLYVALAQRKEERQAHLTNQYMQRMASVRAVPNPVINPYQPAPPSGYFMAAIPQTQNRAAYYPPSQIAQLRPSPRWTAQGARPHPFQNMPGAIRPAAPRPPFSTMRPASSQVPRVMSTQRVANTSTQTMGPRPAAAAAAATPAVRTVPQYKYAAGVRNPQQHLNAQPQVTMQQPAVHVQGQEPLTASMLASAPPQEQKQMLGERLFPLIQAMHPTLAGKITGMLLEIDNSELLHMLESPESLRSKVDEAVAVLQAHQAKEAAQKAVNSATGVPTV
Assay: MLLE domain peptide-binding blockers, IC50 – biochemical, fluorescence polarization, FITC-PAM2 peptide, dose response (AID 602259)
Type: functional
Conditions: read-out: IC50_Mean
Activity calls are given as the source filed them.
Can you tell me IC50 for the items I'm about to list?

Past entries and their recorded results:
> print(dat)
                                   compound  reported.measurement
1  COc1ccccc1C1CC(c2cccs2)=Nc2ccccc2S1 (stereo unspecified)    > 66 µM (inactive)
2                 CC(C)CNc1nc(S)nc(N(C)C)n1    > 66 µM (inactive)
3  O=C(CN1C(=O)/C(=C/c2ccccc2Cl)SC1=S)NC1CCS(=O)(=O)C1 (stereo unspecified)    > 66 µM (inactive)
4        Nc1c(-c2ccccc2)sc2ccc3ccccc3[n+]12    > 66 µM (inactive)

Please report IC50 for every entry that follows.
1. Cc1ccc(-c2nc(N)s[n+]2-c2ccccc2)cc1
2. Oc1ccc(CN2CCCCC2)nc1O
3. CCc1noc(C)c1C(=O)N1CCN(S(=O)(=O)c2ccccc2C(F)(F)F)CC1
4. CC(=O)Nc1ccc(SCC(=O)NC(=O)c2ccc(S(=O)(=O)N(C)C)cc2)cc1
5. Cc1cc(C)n2nc(SCc3cc(=O)oc4ccc5ccccc5c34)nc2n1
6. Cc1ccc(S(=O)(=O)CCSc2cccc(C(=O)O)c2)cc1
7. COCCn1c(=N)c(C(=O)NCc2ccco2)cc2c(=O)n3cc(C)ccc3nc21

1. > 66 µM (inactive)
2. 57.9 µM (inactive)
3. > 66 µM (inactive)
4. > 66 µM (inactive)
5. > 66 µM (inactive)
6. > 66 µM (inactive)
7. 16.7 µM (active)
